experiment-summary: Pharmacokinetics in CD1 mice
Format: in vivo
applied-conditions: CD1, mouse, plasma, po, 10 mg/kg
measurement-type: AUC(0-t) (ng·h/mL)
Use ng·h/mL as the unit, but write only the number.

Answer with the recorded AUC(0-t) of CC(C)CCn1c(CN2CCN(C(=O)C3CC3)CC2)nc2c1c(=O)n(C)c(=O)n2C [Compound 64] only.
484

---

experiment-summary: Pharmacokinetics in CD1 mice
Format: in vivo
applied-conditions: CD1, mouse, liver, po, 10 mg/kg
measurement-type: half-life
# output: numeric value plus its unit

Answer with the recorded half-life of CC(C)CCn1c(CN2CCN(C(=O)C3CC3)CC2)nc2c1c(=O)n(C)c(=O)n2C [Compound 64] only.
24 min

---

assayed-system: human ALDH2 (Homo sapiens)
Sequence (P05091 18-517): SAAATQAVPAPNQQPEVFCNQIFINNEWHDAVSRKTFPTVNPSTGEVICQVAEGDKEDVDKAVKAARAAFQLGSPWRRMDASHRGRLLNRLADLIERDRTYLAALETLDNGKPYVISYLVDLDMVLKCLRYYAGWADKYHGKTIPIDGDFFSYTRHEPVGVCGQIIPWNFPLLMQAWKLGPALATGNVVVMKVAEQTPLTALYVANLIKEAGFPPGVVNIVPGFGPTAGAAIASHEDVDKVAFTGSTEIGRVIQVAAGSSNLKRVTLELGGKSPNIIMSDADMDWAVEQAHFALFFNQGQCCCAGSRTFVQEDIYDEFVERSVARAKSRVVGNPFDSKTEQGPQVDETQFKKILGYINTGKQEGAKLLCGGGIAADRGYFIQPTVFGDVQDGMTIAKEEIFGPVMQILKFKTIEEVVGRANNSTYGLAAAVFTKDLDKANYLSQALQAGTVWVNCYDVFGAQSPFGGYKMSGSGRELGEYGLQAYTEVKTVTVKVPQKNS
measurement-type: pIC50
Would you please state pIC50, meaning minus log10 of the concentration in mol/L, as a bare number?

CCOC(=O)N1CCN(Cc2nc3c(c(=O)n(C)c(=O)n3C)n2Cc2cccc(C)c2)CC1	5.62
CNC(=O)c1ccc(Oc2nc3c(c(=O)n(C)c(=O)n3C)n2Cc2cccc(C)c2)cc1	5.21

API: the following record is the query input.
State recorded pIC50 with human ALDH2 (Homo sapiens), entry Cc1cccc(Cn2c(OC3CCN(C(=O)C4CC4)CC3)nc3c2c(=O)n(C)c(=O)n3C)c1 , no comment.
4.82

---

experiment-summary: Pharmacokinetics in CD1 mice
Format: in vivo
applied-conditions: CD1, mouse, plasma, iv, 2 mg/kg
measurement-type: half-life (min)
Use min as the unit, but write only the number.

Answer with the recorded half-life of CC(C)CCn1c(CN2CCN(C(=O)C3CC3)CC2)nc2c1c(=O)n(C)c(=O)n2C [Compound 64] only.
30

---

assayed-system: hALDH1A1 (Homo sapiens)
Sequence (P00352 whole entry): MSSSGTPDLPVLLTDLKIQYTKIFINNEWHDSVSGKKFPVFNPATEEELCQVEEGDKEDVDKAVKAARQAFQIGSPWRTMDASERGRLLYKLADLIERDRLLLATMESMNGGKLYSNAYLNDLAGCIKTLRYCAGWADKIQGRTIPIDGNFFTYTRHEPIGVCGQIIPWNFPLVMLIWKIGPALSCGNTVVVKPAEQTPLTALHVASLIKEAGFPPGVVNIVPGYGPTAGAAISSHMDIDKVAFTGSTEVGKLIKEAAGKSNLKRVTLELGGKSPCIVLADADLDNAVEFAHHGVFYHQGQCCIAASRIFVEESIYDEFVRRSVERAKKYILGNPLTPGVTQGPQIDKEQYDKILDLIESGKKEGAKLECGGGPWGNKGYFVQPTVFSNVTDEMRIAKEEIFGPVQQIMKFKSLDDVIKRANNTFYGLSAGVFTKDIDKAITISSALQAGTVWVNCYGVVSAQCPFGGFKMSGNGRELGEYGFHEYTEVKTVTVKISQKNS
experiment-summary: biochemical
measurement-type: IC50 (nM)
Use nM as the unit, but write only the number.

Answer with the recorded IC50 of CNC(=O)c1ccc(Oc2nc3c(c(=O)n(C)c(=O)n3C)n2Cc2cccc(C)c2)cc1 [Compound 12] only.
57

Answer with the recorded IC50 of Cn1c(=O)c2[nH]c(OC3CCN(C(=O)C4CC4)CC3)nc2n(C)c1=O [Compound 22] only.
25100

Answer with the recorded IC50 of CCOC(=O)N1CCN(c2nc3c(c(=O)n(C)c(=O)n3C)n2Cc2cccc(C)c2)CC1 [Compound 11] only.
570

Answer with the recorded IC50 of Cn1c(=O)c2c(nc(OC3CCN(C(=O)C4CC4)CC3)n2CCC2CCCCC2)n(C)c1=O [Compound 54] only.
30

Answer with the recorded IC50 of Cn1c(=O)c2c(nc(OC3CCN(C(=O)C4CC4)CC3)n2CCc2ccccc2)n(C)c1=O [Compound 39] only.
629

Answer with the recorded IC50 of Cc1cccc(Cn2c(OC3CCNCC3)nc3c2c(=O)n(C)c(=O)n3C)c1 [Compound 14] only.
13700

---

experiment-summary: Pharmacokinetics in CD1 mice
Format: in vivo
applied-conditions: CD1, mouse, plasma, iv, 2 mg/kg
measurement-type: Vd (L/kg)
Use L/kg as the unit, but write only the number.

Answer with the recorded Vd of CC(C)CCn1c(CN2CCN(C(=O)C3CC3)CC2)nc2c1c(=O)n(C)c(=O)n2C only.
1.8

---

experiment-summary: Caco-2 permeability
Format: in vitro ADME
applied-conditions: human
measurement-type: Papp A→B (×10⁻⁶ cm/s)
Use ×10⁻⁶ cm/s as the unit, but write only the number.

Answer with the recorded Papp A→B of CC(C)CCn1c(CN2CCN(C(=O)C3CC3)CC2)nc2c1c(=O)n(C)c(=O)n2C [Compound 64] only.
19.3

---

experiment-summary: Pharmacokinetics in CD1 mice
Format: in vivo
applied-conditions: CD1, mouse, plasma, po, 10 mg/kg
measurement-type: bioavailability (%)
Use % as the unit, but write only the number.

Answer with the recorded bioavailability of CC(C)CCn1c(CN2CCN(C(=O)C3CC3)CC2)nc2c1c(=O)n(C)c(=O)n2C [Compound 64] only.
29

---

experiment-summary: Caco-2 permeability
Type: in vitro ADME
applied-conditions: human
measurement-type: Papp B→A (×10⁻⁶ cm/s)
Use ×10⁻⁶ cm/s as the unit, but write only the number.

Answer with the recorded Papp B→A of CC(C)CCn1c(CN2CCN(C(=O)C3CC3)CC2)nc2c1c(=O)n(C)c(=O)n2C only.
19.6

---

experiment-summary: Pharmacokinetics in CD1 mice
Type: in vivo
applied-conditions: CD1, mouse, liver, po, 10 mg/kg
measurement-type: Cmax (ng/mL)
Use ng/mL as the unit, but write only the number.

Answer with the recorded Cmax of CC(C)CCn1c(CN2CCN(C(=O)C3CC3)CC2)nc2c1c(=O)n(C)c(=O)n2C only.
2690

---

experiment-summary: Pharmacokinetics in CD1 mice
Format: in vivo
applied-conditions: CD1, mouse, plasma, intravenous, oral, intraperitoneal
measurement-type: half-life

Answer with the recorded half-life of CC(C)CCn1c(CN2CCN(C(=O)C3CC3)CC2)nc2c1c(=O)n(C)c(=O)n2C [Compound 64] only.
< 1 h

---

experiment-summary: Pharmacokinetics in CD1 mice
Type: in vivo
applied-conditions: CD1, mouse, liver, po, 10 mg/kg
measurement-type: AUC(0-t) (ng·h/mL)
Use ng·h/mL as the unit, but write only the number.

Answer with the recorded AUC(0-t) of CC(C)CCn1c(CN2CCN(C(=O)C3CC3)CC2)nc2c1c(=O)n(C)c(=O)n2C only.
1880

---

experiment-summary: Pharmacokinetics in CD1 mice
Format: in vivo
applied-conditions: CD1, mouse, brain, po, 10 mg/kg
measurement-type: half-life (min)
Use min as the unit, but write only the number.

Answer with the recorded half-life of CC(C)CCn1c(CN2CCN(C(=O)C3CC3)CC2)nc2c1c(=O)n(C)c(=O)n2C [Compound 64] only.
24

---

experiment-summary: Pharmacokinetics in CD1 mice
Type: in vivo
applied-conditions: CD1, mouse, plasma, ip, 30 mg/kg
measurement-type: bioavailability
# output: numeric value plus its unit

Answer with the recorded bioavailability of CC(C)CCn1c(CN2CCN(C(=O)C3CC3)CC2)nc2c1c(=O)n(C)c(=O)n2C [Compound 64] only.
100%

---

experiment-summary: High-throughput RLM stability
Format: in vitro ADME
applied-conditions: rat, rat liver microsomes, pH 7.4
measurement-type: half-life at 1 µM (min)
Use min as the unit, but write only the number.

Cc1cccc(Cn2c(OC3CCN(c4nccc(C)n4)CC3)nc3c2c(=O)n(C)c(=O)n3C)c1	1

API: the following record is the query input.
Answer with the recorded half-life at 1 µM of CNC(=O)c1ccc(Oc2nc3c(c(=O)n(C)c(=O)n3C)n2Cc2cccc(C)c2)cc1 only.
8

---

experiment-summary: Pharmacokinetics in CD1 mice
Format: in vivo
applied-conditions: CD1, mouse, plasma, po, 10 mg/kg
measurement-type: Cmax (ng/mL)
Use ng/mL as the unit, but write only the number.

Answer with the recorded Cmax of CC(C)CCn1c(CN2CCN(C(=O)C3CC3)CC2)nc2c1c(=O)n(C)c(=O)n2C only.
696

---

log10 half-life at 1 µM by entry:
experiment-summary: High-throughput RLM stability
Assay type: in vitro ADME
applied-conditions: rat, rat liver microsomes, pH 7.4
// units: min (pre-log); metric: half-life at 1 µM; scale: log10

Answer with the recorded log10 half-life at 1 µM of Cc1cccc(Cn2c(OC3CCN(C(=O)C4CC4)CC3)nc3c2c(=O)n(C)c(=O)n3C)c1 [Compound 34] only.
0.60

Answer with the recorded log10 half-life at 1 µM of Cn1c(=O)c2c(nc(OC3CCN(C(=O)C4CC4)CC3)n2CCc2ccccc2)n(C)c1=O [Compound 39] only.
1.15

Answer with the recorded log10 half-life at 1 µM of CCOC(=O)N1CCN(c2nc3c(c(=O)n(C)c(=O)n3C)n2Cc2cccc(C)c2)CC1 [Compound 11] only.
0.30

Values were extracted from paper PMC5185321.
